B1: HDV Ribozyme (parent)
chain: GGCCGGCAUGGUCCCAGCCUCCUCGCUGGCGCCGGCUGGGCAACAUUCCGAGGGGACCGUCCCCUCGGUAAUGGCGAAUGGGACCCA

# Variants of: B1
# experiment: self-cleavage, relative activity (ratio to wild type); higher = more cleavage; co-transcriptional
Reported self-cleavage maps to class as: bottom end = under 0.2, midrange = from 0.2 up to 0.5, top end = 0.5 and over

Solved cases (2 shown):
UGCCGGCAUGGUCCCAGCCUCCUCGCUGGCGCCGGCUGGGCAACAUUCCGAGGGGACCGUCCCCUCGGUAAUAGCGAAUGGGACCCA [G1U G73A]	midrange
GGCCGGCAUAGUCCCAGCCUCCUCGCUGGCGCCGGCUGGGCAACAUUCCGAGGGGACCGUCCCCUCGGUAAUGGCGAAUGGGACACA [G10A C85A]	top end

Kindly state the category for this variant: GGCCGGCAUGGUGCCAGCCUCCUCGCUGGCGCCGGCUGGGCAACAUUCCGAGGGGACCGUCCCCUCAGUAAUGGCGAAUGGGACCCA [C13G G67A] bottom end

Kindly state the category for this variant: GGCCGGCAUGGUCCCAGCCUCCUCGCUGGCGCCGGCUAGGCAACAUUCCGAGGGGACCGUCCCCUCGAUAAUGGCGAAUGGGACCCA [G38A G68A] midrange

Kindly state the category for this variant: GGCCGGCAUGGUCCCAGCCUCCUCGCUGGCGCCGGCUGGGCAACAUUCCGAGGGGACCGUCCCCUCGGUAGUGGCGAAUGGGACCCC [A71G A87C] top end

Kindly state the category for this variant: GGCCGGCAUGGUCCCAGCCUCCUCCCUGGCGCCGGCUGGGCAACAUUCCGAGGGGAACGUCCCCUCGGUAAUGGCGAAUGGGACCCA [G25C C57A] bottom end

Kindly state the category for this variant: GGCCGGCAUGGUCCCAGCCUCCUCGCUGGCGCCGCCUGGGCAACAUUCCGAGGGGACCGUCCCCUCGGUAAUGGGGAAUGGGACCCA [G35C C75G] midrange

Kindly state the category for this variant: GGCCGGCAUGGUCCCAGCCUCCUCGCUUGCGCCGGCUGGGCAACAUUCCGAGGGGACCGUCCCCUCGGUAAUUGCGAAUGGGACCCA [G28U G73U] bottom end
